Target: thromboxane synthetase enzyme (Rattus norvegicus, UniProt P49430)
Construct: endogenous in cells; host or cells: washed platelets from arterial blood of male Okamoto-Aoki spontaneously hypertensive rats (animals from Taconic Farms, Germantown, N.Y.)
Sequence (P49430 whole entry): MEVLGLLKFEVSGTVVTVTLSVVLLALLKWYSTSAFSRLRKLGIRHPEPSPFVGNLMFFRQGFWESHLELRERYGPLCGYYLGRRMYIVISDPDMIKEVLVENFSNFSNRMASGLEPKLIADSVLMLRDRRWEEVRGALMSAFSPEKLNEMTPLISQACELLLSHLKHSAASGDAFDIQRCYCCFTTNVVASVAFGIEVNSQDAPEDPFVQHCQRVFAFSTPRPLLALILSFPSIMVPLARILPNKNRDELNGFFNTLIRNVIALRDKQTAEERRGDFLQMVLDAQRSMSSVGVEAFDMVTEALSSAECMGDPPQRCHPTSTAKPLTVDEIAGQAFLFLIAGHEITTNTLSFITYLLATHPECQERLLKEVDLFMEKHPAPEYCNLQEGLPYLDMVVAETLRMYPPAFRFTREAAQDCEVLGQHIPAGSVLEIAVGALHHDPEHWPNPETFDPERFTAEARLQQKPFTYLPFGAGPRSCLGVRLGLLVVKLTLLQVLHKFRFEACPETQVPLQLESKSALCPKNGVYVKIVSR
Test: Thromboxane synthetase enzyme inhibition (TXB2 formation in washed platelets, RIA)
Type: cell-based, spontaneously hypertensive rat
Details: 1×10^-4 Molar; SHR platelets, 10 min at 37° C.; read-out: % Inhibition (Thromboxane Synthetase Enzyme Inhibition)
Protocol: The blood was diluted with 3 ml cold saline and centrifuged at room temperature for 15 min at 468×g. The platelet rich plasma (PRP) was separated. The platelets were isolated by certrifuging the PRP for 10 minutes at 1060×g and washed in 4 ml cold oxygenated Krebs phosphate buffer, pH 7.4. The chilled platelets recovered from centrifuging at 800×g for 10 minutes were resuspended in oxygenated Krebs phosphate buffer and diluted to contain 4.0-6.0×10^4 platelets/micro-liters. […]
Structures can show the parent of a compound that is named as a salt.
Let's look at some compounds and their measured inhibition at 100 µM.
METRIC: inhibition at 100 µM (%)

In [3]: df
Out[3]:
                                   compound                             target_system                metric  units_of_measure  value_measured
0  c1ccc(-n2ncc(CNC3=Nc4cccc5cccc3c45)n2)cc1  thromboxane synthetase enzyme (Rattus norvegicus, UniProt P49430)  inhibition at 100 µM                 %              73
1  c1cc2c3c(cccc3c1)C(NCCOCCn1ccnc1)=N2 [bis-fumarate]  thromboxane synthetase enzyme (Rattus norvegicus, UniProt P49430)  inhibition at 100 µM                 %              98
2    Clc1cc(Cl)c2cccc3c2c1N=C3NCCCCc1cccnc1  thromboxane synthetase enzyme (Rattus norvegicus, UniProt P49430)  inhibition at 100 µM                 %              93
3  CN(CCc1ccccn1)C1=Nc2cccc3cccc1c23 [fumarate]  thromboxane synthetase enzyme (Rattus norvegicus, UniProt P49430)  inhibition at 100 µM                 %              89
4  CC(CNC1=Nc2cccc3cccc1c23)Cn1ccnc1.Cl.Cl (stereo not shown) [dihydrochloride]  thromboxane synthetase enzyme (Rattus norvegicus, UniProt P49430)  inhibition at 100 µM                 %              95
5     O=C(CNC1=Nc2cccc3cccc1c23)NCCCn1ccnc1  thromboxane synthetase enzyme (Rattus norvegicus, UniProt P49430)  inhibition at 100 µM                 %             100
6  O=S(=O)(c1ccccc1)N(CCCn1ccnc1)C1=Nc2cccc3cccc1c23  thromboxane synthetase enzyme (Rattus norvegicus, UniProt P49430)  inhibition at 100 µM                 %              93
7  CC(CCNC1=Nc2cccc3cccc1c23)n1ccnc1 (stereo not shown) [dihydrochloride]  thromboxane synthetase enzyme (Rattus norvegicus, UniProt P49430)  inhibition at 100 µM                 %              92
8  O=C(O)/C=C/C(=O)O.c1ccc(CCNC2=Nc3cccc4cccc2c34)nc1 [fumarate]  thromboxane synthetase enzyme (Rattus norvegicus, UniProt P49430)  inhibition at 100 µM                 %              94
9  CC(CCCNC1=Nc2cccc3cccc1c23)n1ccnc1.O=C(O)/C=C/C(=O)O (stereo not shown) [fumarate]  thromboxane synthetase enzyme (Rattus norvegicus, UniProt P49430)  inhibition at 100 µM                 %              99
